Molecular target: T1, Axl (Homo sapiens, UniProt P30530)
T1 sequence (P30530 26-451 limits assumed): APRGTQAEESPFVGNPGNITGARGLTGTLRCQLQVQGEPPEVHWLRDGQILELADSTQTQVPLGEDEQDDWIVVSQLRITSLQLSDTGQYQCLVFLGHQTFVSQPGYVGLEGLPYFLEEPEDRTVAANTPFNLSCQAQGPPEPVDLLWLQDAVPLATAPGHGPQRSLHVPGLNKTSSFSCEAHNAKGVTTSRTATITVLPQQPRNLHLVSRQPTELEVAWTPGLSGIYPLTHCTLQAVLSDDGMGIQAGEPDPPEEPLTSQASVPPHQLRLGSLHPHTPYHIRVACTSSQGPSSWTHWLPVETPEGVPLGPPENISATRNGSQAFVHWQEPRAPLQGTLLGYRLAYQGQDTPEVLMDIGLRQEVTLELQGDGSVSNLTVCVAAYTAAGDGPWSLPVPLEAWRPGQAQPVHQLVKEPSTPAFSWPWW
Assay: Affinity ELISA of CPE mutant antibodies for binding to Axl at pH 6.0 over pH 7.4
Conditions: heavy chain variable region mutants; 1:9 dilution
Lab note: compare Affinity ELISA CPE mutant ratio (1:9, pH 6.0/7.4) with 2, writing Satisfied if less and Not satisfied if equal or more.

1) HC-Y104E (antibody, V domains shown) VH: EVQLVQSGAEVKKPGATVKISCKVSGYSFTGHTMNWIRQPPGKGLEWIGLIKPSNGGTSYNQKFKGRVTISADKSISTAYLQWSSLKASDTAMYYCAHGHYESEFAMDYWGQGTLVTVSS VL: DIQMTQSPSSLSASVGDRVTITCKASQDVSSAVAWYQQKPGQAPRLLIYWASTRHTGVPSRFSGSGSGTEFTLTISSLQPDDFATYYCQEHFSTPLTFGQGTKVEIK: Satisfied
2) HC-E102R (antibody, V domains shown) VH: EVQLVQSGAEVKKPGATVKISCKVSGYSFTGHTMNWIRQPPGKGLEWIGLIKPSNGGTSYNQKFKGRVTISADKSISTAYLQWSSLKASDTAMYYCAHGHYRSYFAMDYWGQGTLVTVSS VL: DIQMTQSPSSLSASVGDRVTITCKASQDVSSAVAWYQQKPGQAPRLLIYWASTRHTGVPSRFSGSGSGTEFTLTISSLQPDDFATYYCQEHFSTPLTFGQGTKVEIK: Not satisfied
3) HC-T030A (antibody, V domains shown) VH: EVQLVQSGAEVKKPGATVKISCKVSGYSFAGHTMNWIRQPPGKGLEWIGLIKPSNGGTSYNQKFKGRVTISADKSISTAYLQWSSLKASDTAMYYCAHGHYESYFAMDYWGQGTLVTVSS VL: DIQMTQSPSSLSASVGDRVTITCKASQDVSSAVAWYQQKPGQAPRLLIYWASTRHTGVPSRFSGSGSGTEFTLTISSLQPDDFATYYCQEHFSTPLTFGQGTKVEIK: Satisfied
4) HC-A106D (antibody, V domains shown) VH: EVQLVQSGAEVKKPGATVKISCKVSGYSFTGHTMNWIRQPPGKGLEWIGLIKPSNGGTSYNQKFKGRVTISADKSISTAYLQWSSLKASDTAMYYCAHGHYESYFDMDYWGQGTLVTVSS VL: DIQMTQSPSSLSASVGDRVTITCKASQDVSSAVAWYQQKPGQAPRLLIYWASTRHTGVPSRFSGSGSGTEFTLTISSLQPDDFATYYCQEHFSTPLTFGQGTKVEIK: Not satisfied
5) HC-G111H (antibody, V domains shown) VH: EVQLVQSGAEVKKPGATVKISCKVSGYSFTGHTMNWIRQPPGKGLEWIGLIKPSNGGTSYNQKFKGRVTISADKSISTAYLQWSSLKASDTAMYYCAHGHYESYFAMDYWHQGTLVTVSS VL: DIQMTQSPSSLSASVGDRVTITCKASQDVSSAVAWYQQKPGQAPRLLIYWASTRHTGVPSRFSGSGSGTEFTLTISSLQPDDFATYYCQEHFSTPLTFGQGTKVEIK: Satisfied
